METHOD: chemical genetic growth profiling, strain panel (AID 1159580);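 also: tested at 20 µM; growth read once vehicle control cultures reached saturation at 30 °C; 1 = growth at the plate median or of vehicle wells; lower values mean less growth of the strain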
DETAILS: S. cerevisiae deletion strains, growth OD, locus YOR083W, strain WHI5, active compounds read low
The campaign covered roughly 5,500 compounds. About 2,000 (36%) were called active. Roughly 18% stayed inconclusive and do not appear here. Some of the results follow.
VALUE TYPE: normalized growth
Please give only the number in your answer, with no unit.

Lookup result for NC(Cc1ccc(Cl)cc1)C(=O)O (centres undefined) ; measured normalized growth: 1.02

Form field normalized growth, entry COc1cc(OC)c2c(OC)c(-c3ccc4c(c3)OCO4)c(=O)oc2c1 : 0.937

Given item CN1CCN(C2=Nc3cc(Cl)ccc3Nc3ccccc32)CC1 , the value recorded as its normalized growth is 0.92

response.value for O=C(/C=C/c1ccccc1)c1ccc(O[C@@H]2O[C@H](CO)[C@@H](O)[C@H](O)[C@H]2O)cc1O (field: normalized growth) = 0.859

Query O=C(O)c1cccnc1C(=O)O yields normalized growth of 0.945

Data point: CNC(C)(C)Cc1ccccc1 ; normalized growth = 1.02

Field normalized growth (entry CC(C)[C@@H]1CC[C@@H](C)CC1=O ) reads 0.965

Note to self: normalized growth recorded for CC12CCC(OC(=O)c3ccccc3)CC1CCc1ccccc12 (centres undefined) was 0.995

get_value(item= O=C(O)c1cc(=O)c2ccccc2[nH]1 , readout=normalized growth) returns 0.999

Per the record, CC(C)[C@@H]1CC[C@@H](C)C[C@H]1OC(=O)c1ccccc1 has normalized growth of 1

The molecule listed as Oc1cc2c(cc1O)C(c1ccccc1)CNCC2 (centres undefined) has a reported normalized growth of 0.922

The molecule identified as O=C(/C=C/c1ccc(O)cc1)c1ccc(O)cc1O registered its normalized growth at 0.974

Given item CON , the value recorded as its normalized growth is 1.03

# normalized growth (molecule: CC1(C)CC23C(=O)CCC(O)C2(C)CCC13 (centres undefined) ) is 0.979

What the record says about CC(=O)OC[C@@]1(O)C[C@@]23CCC4c5ccoc5CC[C@]4(C)C2CC[C@@H]1C3 (some centres undefined) : normalized growth is 0.978

According to the records, this molecule CC(=O)Oc1c(C)c(C)c2c(c1C)CCC(C)(CCCC(C)CCCC(C)CCCC(C)C)O2 (centres undefined) displays normalized growth of 1.01

// normalized growth value for NS(=O)(=O)c1cc2c(cc1Cl)NCNS2(=O)=O : 0.988

Quick note, normalized growth for OC[C@H]1O[C@@H](Oc2ccc(O)cc2)[C@H](O)[C@@H](O)[C@@H]1O landed at 0.992

Field normalized growth (entry CC(=O)NS(=O)(=O)c1ccc(N)cc1 ) reads 1

normalized growth for CCC1(C2=NCCN2)Cc2ccccc2O1 (centres undefined) is 0.994

Reported normalized growth for CO/N=C(/C(=O)NC1C(=O)N2C(C(=O)OCOC(=O)C(C)(C)C)=C(/C=C\c3scnc3C)CSC12)c1csc(N)n1 (centres undefined) was 0.95

The reported value for O=C(N[C@@H](CO)[C@H](O)c1ccc([N+](=O)[O-])cc1)C(Cl)Cl in terms of normalized growth is 0.984

Sample O=C1c2ccccc2C(=O)c2ccccc21 ; normalized growth observed: 0.963

Looking up C=CC[C@@H]1/C=C(\C)C[C@H](C)C[C@H](OC)[C@H]2O[C@@](O)(C(=O)C(=O)N3CCCC[C@H]3C(=O)O[C@H](/C(C)=C/[C@@H]3CC[C@@H](O)[C@H](OC)C3)[C@H](C)[C@@H](O)CC1=O)[C@H](C)C[C@@H]2OC , I see its normalized growth listed as 0.931

# normalized growth (molecule: Cc1cc(O)c2c(c1)C(=O)c1cccc(O)c1C2=O ) is 0.999

normalized growth recorded for this molecule, Oc1cccc2cccnc12 , is 0.167

Entry COc1cc2c(cc1OC)C(C)NCC2 (centres undefined) ; normalized growth = 1.02

Sample C=C(C)C1Cc2c(ccc3c(=O)c4c(oc23)COc2cc(OC)c(OC)cc2-4)O1 (centres undefined) ; normalized growth observed: 1.01

Form: molecule = CC(=O)c1ccc[nH]1 ; normalized growth = 1

Just so you know, measured normalized growth for COCC1=C(C(=O)OC(C)OC(=O)OC(C)C)N2C(=O)[C@@H](NC(=O)/C(=N\OC)c3csc(N)n3)[C@H]2SC1 (some centres undefined) came out at 0.993

Item: CNC(=O)N(C)c1nnc(C(C)(C)C)s1 | normalized growth: 0.991

Memo: O=C1NS(=O)(=O)c2ccccc21 , reported normalized growth: 0.981

Reported normalized growth for NC(=NCCCCCCN=C(N)N=C(N)Nc1ccc(Cl)cc1)N=C(N)Nc1ccc(Cl)cc1 was 0.0615

Item: O=C(O)CCC(=O)OC[C@@H](NC(=O)C(Cl)Cl)[C@H](O)c1ccc([N+](=O)[O-])cc1 | normalized growth: 0.978

Looking up COc1cc([C@@H]2c3cc4c(cc3[C@H](O)[C@H]3COC(=O)[C@H]23)OCO4)cc(OC)c1OC , I found its normalized growth recorded as 1.01

Record summary for CC(=O)NC1C(O)OC(COS(=O)(=O)O)C(OC2OC(C(=O)O)C(OC3OC(CO)C(OC4OC(C(=O)O)C(O)C(O)C4OS(=O)(=O)O)C(OS(=O)(=O)O)C3NS(=O)(=O)O)C(O)C2OS(=O)(=O)O)C1O (centres undefined) : reported normalized growth = 0.986

Measured normalized growth of CC1=C(C(=O)O)N2C(=O)[C@@H](NC(=O)[C@@H](N)c3ccc(O)cc3)[C@H]2SC1 : 1.03

For reference, reported normalized growth for Cc1cc2nc3c(=O)[nH]c(=O)nc-3n(CC(O)C(O)C(O)CO)c2cc1C (centres undefined) stands at 0.951

For O=C(O)[C@H]1/C(=C/CO)O[C@@H]2CC(=O)N21 the molecule record lists normalized growth as 0.909

Reported normalized growth for CC(=CC1CCC(C)C2CCC(C)=C12)C(=O)O (centres undefined) was 0.933

normalized growth in this record for O=C(c1ccccc1)c1ccc2n1CCC2C(=O)O (centres undefined) : 1.04

Sample O=c1c(O)c(-c2ccccc2)oc2ccc3occc3c12 ; normalized growth observed: 0.79

Short answer for CCCCCC/C=C\CCCCCCCc1cccc(O)c1C(=O)O : normalized growth was 1

Kindly note the recorded normalized growth for CC(=O)OCC1=C(C(=O)O)N2C(=O)[C@@H](NC(=O)CSc3ccncc3)[C@H]2SC1 , which is 1.05
